# testedSystem: Estrogen receptor (Homo sapiens) (UniProt P03372)
# Sequence (P03372 whole entry, looked up): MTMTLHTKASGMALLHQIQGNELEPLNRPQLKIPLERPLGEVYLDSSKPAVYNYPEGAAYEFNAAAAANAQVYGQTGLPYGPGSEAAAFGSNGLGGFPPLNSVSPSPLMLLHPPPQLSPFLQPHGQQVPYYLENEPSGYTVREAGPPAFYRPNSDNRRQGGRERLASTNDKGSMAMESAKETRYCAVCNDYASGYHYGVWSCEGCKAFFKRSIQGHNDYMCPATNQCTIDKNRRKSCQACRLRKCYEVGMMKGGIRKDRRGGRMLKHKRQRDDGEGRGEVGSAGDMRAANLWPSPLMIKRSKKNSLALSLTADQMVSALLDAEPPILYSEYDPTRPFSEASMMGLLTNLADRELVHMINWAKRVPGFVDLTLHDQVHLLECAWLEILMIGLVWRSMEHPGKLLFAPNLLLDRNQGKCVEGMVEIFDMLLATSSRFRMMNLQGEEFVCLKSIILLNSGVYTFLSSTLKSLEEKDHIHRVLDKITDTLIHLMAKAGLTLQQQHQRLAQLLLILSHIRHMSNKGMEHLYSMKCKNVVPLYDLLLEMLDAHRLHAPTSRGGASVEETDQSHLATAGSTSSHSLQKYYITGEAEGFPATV
# runDescription: qHTS assay to identify small molecule agonists of the estrogen receptor alpha (ER-alpha) signaling pathway (AID 743075);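 note: HEK293 GripTite cells with ER-alpha and UAS-driven beta-lactamase reporter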
# conditionSummary: HEK293 ER-alpha-UAS-bla, beta-lactamase FRET ratio, 18 h; series mostly up to 70.1 µM
Activity calls are given as the source filed them. Calls come from the whole dose curve.
Please answer using one outcome listed in active, inactive

## Input Hi team, can someone confirm the assay call for CCCCN(CCCC)CCC(O)c1cc2c(Cl)cc(Cl)cc2c2cc(C(F)(F)F)ccc12 (stereo not given) ?
## Output inactive

## Input Hi team, can someone confirm the assay call for COc1ccccc1OCCNCC(O)COc1cccc2[nH]c3ccccc3c12 (stereo not given) ?
## Output inactive

## Input Hi team, can someone confirm the assay call for CN(C)c1ccc(N=Nc2ccccc2C(=O)O)cc1 ?
## Output inactive

## Input Hi team, can someone confirm the assay call for CC1CCCNC1 (stereo not given) ?
## Output inactive

## Input Hi team, can someone confirm the assay call for CNC(=O)c1cc(Oc2ccc(NC(=O)Nc3ccc(Cl)c(C(F)(F)F)c3)cc2)ccn1 ?
## Output inactive

## Input Hi team, can someone confirm the assay call for CC(C)(C)CC(C)(C)c1ccccc1O ?
## Output active

## Input Hi team, can someone confirm the assay call for C=C[C@](C)(O)CC[C@@H]1[C@@]2(C)CCCC(C)(C)[C@@H]2CC[C@@]1(C)O ?
## Output inactive

## Input Hi team, can someone confirm the assay call for Cc1nc(Nc2ncc(C(=O)Nc3c(C)cccc3Cl)s2)cc(N2CCN(CCO)CC2)n1 ?
## Output inactive

## Input Hi team, can someone confirm the assay call for COc1cc(C(C)C)c2c(c1)S(=O)(=O)N(COc1cc(=O)n3cccc(OCCN4CCCCC4)c3n1)C2=O ?
## Output inactive

## Input Hi team, can someone confirm the assay call for CSc1ccc2c(c1)N(CCC1CCCCN1C)c1ccccc1S2 (stereo not given) ?
## Output inactive

## Input Hi team, can someone confirm the assay call for CCCCCCCCCCCCCC[n+]1ccccc1 ?
## Output inactive

## Input Hi team, can someone confirm the assay call for CCCCCCOc1ccc(O)cc1 ?
## Output inactive

## Input Hi team, can someone confirm the assay call for NC1(c2ccc(-c3nc4ccn5c(=O)[nH]nc5c4cc3-c3ccccc3)cc2)CCC1 ?
## Output active

## Input Hi team, can someone confirm the assay call for NCCCCCCNCCCCCCN ?
## Output inactive

## Input Hi team, can someone confirm the assay call for CCCCCCCC/C=C\CCCCCCCC(=O)OCCOC(=O)CCCCCCC/C=C\CCCCCCCC ?
## Output inactive

## Input Hi team, can someone confirm the assay call for CCOC(=O)COc1ccc(C)cc1 ?
## Output inactive

## Input Hi team, can someone confirm the assay call for CN(Cc1cc(Br)cc(Br)c1N)C1CCCCC1 ?
## Output inactive

## Input Hi team, can someone confirm the assay call for O=S(=O)(O)CCCN1CCOCC1 ?
## Output inactive

## Input Hi team, can someone confirm the assay call for O=C1OC(=O)c2cccc3cccc1c23 ?
## Output inactive

## Input Hi team, can someone confirm the assay call for O=C(O)c1cccc(Cl)n1 ?
## Output inactive

## Input Hi team, can someone confirm the assay call for C=CC(C)(CCC=C(C)C)OC(=O)/C=C/c1ccccc1 (stereo not given) ?
## Output inactive

## Input Hi team, can someone confirm the assay call for CCCN(CCc1cccs1)[C@H]1CCc2c(O)cccc2C1 ?
## Output inactive

## Input Hi team, can someone confirm the assay call for NC(=O)C(=O)N/N=C/c1ccc([N+](=O)[O-])o1 ?
## Output inactive

## Input Hi team, can someone confirm the assay call for CC(C)(c1cc(Br)c(OCCO)c(Br)c1)c1cc(Br)c(OCCO)c(Br)c1 ?
## Output inactive

## Input Hi team, can someone confirm the assay call for CC(C)=C1CC[C@@H](C)CC1=O ?
## Output inactive

* * *

# testedSystem: Cytochrome P450 3A4 (Homo sapiens) (UniProt P08684)
# Sequence (P08684 whole entry, looked up): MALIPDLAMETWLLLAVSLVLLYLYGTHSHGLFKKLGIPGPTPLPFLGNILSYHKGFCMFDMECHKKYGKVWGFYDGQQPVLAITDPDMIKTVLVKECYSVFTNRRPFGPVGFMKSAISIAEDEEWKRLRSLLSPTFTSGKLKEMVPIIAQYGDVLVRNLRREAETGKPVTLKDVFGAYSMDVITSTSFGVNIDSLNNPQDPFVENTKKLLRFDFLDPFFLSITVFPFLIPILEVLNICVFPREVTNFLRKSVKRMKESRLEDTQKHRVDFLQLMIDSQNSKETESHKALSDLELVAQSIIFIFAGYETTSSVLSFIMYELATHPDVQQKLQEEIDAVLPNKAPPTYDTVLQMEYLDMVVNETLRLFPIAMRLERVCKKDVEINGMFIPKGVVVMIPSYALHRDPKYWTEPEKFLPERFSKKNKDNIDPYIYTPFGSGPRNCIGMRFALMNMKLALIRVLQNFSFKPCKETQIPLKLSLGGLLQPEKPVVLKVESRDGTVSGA
# runDescription: Cytochrome P450 Family 3 Subfamily A Member 4 (CYP3A4) small molecule antagonists: luciferase reporter qHTS assay (AID 1671201); note: nearly all actives have a fitted effect of over 50% in size
# conditionSummary: P450-Glo CYP3A4 enzyme, luciferin luminescence, 1 h; series mostly up to 115 µM
Results filed as inconclusive are left out. Calls of active or inactive are those of the source. The call rests on the fitted dose curve; in most records, active means well fitted inhibition curve with a large enough effect in the repeat runs; inconclusive means weak or mixed curves; inactive means no such curve, though single readings can be large or run the other way.
Please answer using one outcome listed in true (1) for active, false (0) for inactive

## Input Hi team, can someone confirm the assay call for CCOC(OCC)C(=O)c1ccccc1 ?
## Output false (0)

## Input Hi team, can someone confirm the assay call for COC(=O)NCCC[Si](OC)(OC)OC ?
## Output true (1)

## Input Hi team, can someone confirm the assay call for CCCC(C)CCC(C)=O (stereo not drawn) ?
## Output false (0)

## Input Hi team, can someone confirm the assay call for Cc1ccc(-n2[nH]c(C)c(N=Nc3cccc(-c4cccc(C(=O)O)c4)c3O)c2=O)cc1C ?
## Output false (0)

## Input Hi team, can someone confirm the assay call for Cc1ccc(O)cn1 ?
## Output false (0)

## Input Hi team, can someone confirm the assay call for CCO[Si](CCCSSSSCCC[Si](OCC)(OCC)OCC)(OCC)OCC ?
## Output true (1)

## Input Hi team, can someone confirm the assay call for CCCCCCCC(OC)OC ?
## Output false (0)

## Input Hi team, can someone confirm the assay call for CCCCCCCCCCCCCc1ccccc1 ?
## Output false (0)

## Input Hi team, can someone confirm the assay call for OCCCS ?
## Output false (0)

## Input Hi team, can someone confirm the assay call for CC(=O)c1ccccc1N ?
## Output false (0)

## Input Hi team, can someone confirm the assay call for CCOB(OCC)OCC ?
## Output false (0)

## Input Hi team, can someone confirm the assay call for CC(=O)OC1CCCCC1 ?
## Output false (0)

## Input Hi team, can someone confirm the assay call for C=CC(C)C#N (stereo not drawn) ?
## Output false (0)

## Input Hi team, can someone confirm the assay call for Clc1nc2ccccc2s1 ?
## Output false (0)

## Input Hi team, can someone confirm the assay call for O=C1NCN(c2ccccc2)C12CCN(CCCC(c1ccc(F)cc1)c1ccc(F)cc1)CC2 ?
## Output false (0)

## Input Hi team, can someone confirm the assay call for O=Cc1ccc(F)cc1 ?
## Output false (0)

## Input Hi team, can someone confirm the assay call for CCCCOc1ccc(C(=O)CCN2CCCCC2)cc1 ?
## Output false (0)

## Input Hi team, can someone confirm the assay call for CCCC(O)C(O)CO (stereo not drawn) ?
## Output false (0)

## Input Hi team, can someone confirm the assay call for CO[Si](CCCNCCNCCN)(OC)OC ?
## Output false (0)

## Input Hi team, can someone confirm the assay call for COc1nccnc1CC(C)C ?
## Output false (0)

## Input Hi team, can someone confirm the assay call for CCCCCCCC(=O)OCC ?
## Output false (0)

## Input Hi team, can someone confirm the assay call for CC(O)C#CC(C)O (stereo not drawn) ?
## Output false (0)

## Input Hi team, can someone confirm the assay call for CN1CN(C)CN(C)C1 ?
## Output false (0)

## Input Hi team, can someone confirm the assay call for Cc1cc(=O)[nH]c(=O)[nH]1 ?
## Output false (0)

## Input Hi team, can someone confirm the assay call for CSc1ccc2c(c1)N(CCC1CCCCN1C)c1ccccc1S2 (stereo not drawn) ?
## Output false (0)

## Input Hi team, can someone confirm the assay call for CCC(=O)OCCc1ccccc1 ?
## Output false (0)

## Input Hi team, can someone confirm the assay call for CC(C)N=C(N)/N=C(\N)Nc1ccc(Cl)cc1 ?
## Output false (0)

## Input Hi team, can someone confirm the assay call for [O]=[Zr] ?
## Output false (0)

## Input Hi team, can someone confirm the assay call for C(=C/c1ccccc1)/c1ccccc1 ?
## Output false (0)

## Input Hi team, can someone confirm the assay call for CC(C)c1ccccc1N ?
## Output true (1)

## Input Hi team, can someone confirm the assay call for c1cc[nH]c1 ?
## Output false (0)

## Input Hi team, can someone confirm the assay call for CCCCCCCC(C)=O ?
## Output false (0)

## Input Hi team, can someone confirm the assay call for O=C1OC(OC(=O)c2cccnc2Nc2cccc(C(F)(F)F)c2)c2ccccc21 (stereo not drawn) ?
## Output false (0)

## Input Hi team, can someone confirm the assay call for Nc1ccc2cc3ccc(N)cc3nc2c1 ?
## Output true (1)

## Input Hi team, can someone confirm the assay call for CC1=CCC(=O)O1 ?
## Output false (0)

## Input Hi team, can someone confirm the assay call for CC(=O)Oc1ccc(C2(c3ccc(OC(C)=O)cc3)C(=O)Nc3ccccc32)cc1 ?
## Output false (0)

## Input Hi team, can someone confirm the assay call for CC1CCCCC1 ?
## Output false (0)

## Input Hi team, can someone confirm the assay call for COc1ccccc1C=O ?
## Output false (0)

## Input Hi team, can someone confirm the assay call for Cc1cc(Nc2ccc(O)cc2)ccc1N ?
## Output true (1)

## Input Hi team, can someone confirm the assay call for NC1(c2ccc(-c3nc4ccn5c(=O)[nH]nc5c4cc3-c3ccccc3)cc2)CCC1 ?
## Output false (0)

## Input Hi team, can someone confirm the assay call for CC(COC(=O)c1ccccc1)OC(=O)c1ccccc1 (stereo not drawn) ?
## Output false (0)

## Input Hi team, can someone confirm the assay call for COC(=O)CC#N ?
## Output false (0)

## Input Hi team, can someone confirm the assay call for c1cc2c3c(c1)ccc1cccc(c13)C2 ?
## Output false (0)

## Input Hi team, can someone confirm the assay call for C=C(c1ccc(C(=O)O)cc1)c1cc2c(cc1C)C(C)(C)CCC2(C)C ?
## Output false (0)

## Input Hi team, can someone confirm the assay call for O=CC1CC1 ?
## Output false (0)

## Input Hi team, can someone confirm the assay call for CCN(CC)c1ccc(N)cc1 ?
## Output true (1)

## Input Hi team, can someone confirm the assay call for Cc1cncc(C)c1 ?
## Output false (0)

## Input Hi team, can someone confirm the assay call for CC1(C)COCN1 ?
## Output false (0)

## Input Hi team, can someone confirm the assay call for O=C1NC2CCCCN2C12CCN(CCCN1c3ccccc3CCc3ccc(Cl)cc31)CC2 (stereo not drawn) ?
## Output false (0)

## Input Hi team, can someone confirm the assay call for Clc1ccc(C(c2ccccc2Cl)C(Cl)Cl)cc1 (stereo not drawn) ?
## Output false (0)

## Input Hi team, can someone confirm the assay call for Cc1cccc(Br)c1 ?
## Output false (0)

## Input Hi team, can someone confirm the assay call for COc1cc(C(C)C)c2c(c1)S(=O)(=O)N(COc1cc(=O)n3cccc(OCCN4CCCCC4)c3n1)C2=O ?
## Output true (1)

## Input Hi team, can someone confirm the assay call for C[C@]12CC[C@H]3C(=CCc4cc(O)ccc43)[C@@H]1CCC2=O ?
## Output true (1)

## Input Hi team, can someone confirm the assay call for O=C(O)CCCCCCC(=O)O ?
## Output false (0)

## Input Hi team, can someone confirm the assay call for O=c1cccc[nH]1 ?
## Output false (0)

## Input Hi team, can someone confirm the assay call for CCOCOCC ?
## Output false (0)

## Input Hi team, can someone confirm the assay call for CC(=O)O[C@@H]1C[C@@H]2CC[C@@]1(C)C2(C)C ?
## Output false (0)

## Input Hi team, can someone confirm the assay call for CCc1cccc(C)c1 ?
## Output false (0)

## Input Hi team, can someone confirm the assay call for C[Si](C)(C)Cl ?
## Output false (0)

## Input Hi team, can someone confirm the assay call for CC1(C)C(=O)N(CO)C(=O)N1CO ?
## Output false (0)

## Input Hi team, can someone confirm the assay call for CC(C)(C)CC(C)(C)c1ccccc1O ?
## Output true (1)

## Input Hi team, can someone confirm the assay call for O=C=NCc1cccc(CN=C=O)c1 ?
## Output true (1)

## Input Hi team, can someone confirm the assay call for CCCCCCCC/C=C/CCCOC(C)=O ?
## Output false (0)
